Molecular target: T1, human CD20 (human, UniProt P11836 1-297)
T1 sequence: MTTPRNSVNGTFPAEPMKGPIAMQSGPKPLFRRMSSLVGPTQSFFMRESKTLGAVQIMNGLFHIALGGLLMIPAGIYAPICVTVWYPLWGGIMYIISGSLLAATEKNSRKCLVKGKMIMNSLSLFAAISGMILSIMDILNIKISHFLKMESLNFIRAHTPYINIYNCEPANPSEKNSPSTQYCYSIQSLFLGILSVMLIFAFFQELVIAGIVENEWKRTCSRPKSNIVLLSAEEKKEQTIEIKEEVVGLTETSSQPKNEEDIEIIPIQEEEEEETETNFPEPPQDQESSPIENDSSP
Assay: cell-based or functional assay
% Cytotoxicity (CDC, Daudi), 1 hour values, listed per item
In your response, put the unit directly after the numeric value.

| BINDER | TEST VALUE |
| --- | --- |
| 9C11-14 (antibody, V domains shown, Fully human IgG, constant region not specified; also called 9C11-14N) VH: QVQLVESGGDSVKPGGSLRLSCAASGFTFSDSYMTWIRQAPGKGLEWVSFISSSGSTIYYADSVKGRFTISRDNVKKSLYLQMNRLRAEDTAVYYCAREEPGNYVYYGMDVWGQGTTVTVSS VL: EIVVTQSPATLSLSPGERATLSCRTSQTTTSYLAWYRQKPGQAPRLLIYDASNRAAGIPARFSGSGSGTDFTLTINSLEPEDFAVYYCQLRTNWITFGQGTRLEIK | 22.3% |

Consider now this further binder.
Task: Query (binder): 10F2-13 (antibody, V domains shown, Fully human IgG, constant region not specified; also called 10F2-13N; ab 10F2-13) VH: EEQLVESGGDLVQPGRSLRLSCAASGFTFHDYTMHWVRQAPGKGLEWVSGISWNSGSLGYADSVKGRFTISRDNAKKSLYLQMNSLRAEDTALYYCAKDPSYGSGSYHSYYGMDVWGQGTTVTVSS VL: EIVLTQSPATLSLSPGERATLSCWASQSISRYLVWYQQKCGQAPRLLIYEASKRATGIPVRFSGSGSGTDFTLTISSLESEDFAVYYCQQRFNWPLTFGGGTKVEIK ; field requested: % Cytotoxicity (CDC, Daudi), 1 hour
Output: 99.2%
